# test-target: T1, GH5*:α3NADAR1-PW (/ human ADAR1 α3N and β-wing residues, UniProt P02259, K41G;S42G;R43G;K53A;R95A;del65;D66K;L67K;Q68E;K70N;L71R;S72V;I73L;R74Y;R75S;S91P …)
# T1 sequence: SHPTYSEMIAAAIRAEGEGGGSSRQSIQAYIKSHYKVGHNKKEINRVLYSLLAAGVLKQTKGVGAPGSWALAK
# method-notes: MST; 150 mM KCl, pH 7.8; MST at 22 C, 5 nM labeled DNA, 0.5 mg/ml BSA, 0.05% Tween 20; 5 mM HEPES pH 7.5, 20 mM NaCl (Table 2); 20 mM HEPES pH 8.0, 100 mM NaCl (Table 4); 20 mM Tris-HCl pH 7.8, 150 mM KCl (Table 5)
# conditions-used: protein: recombinant; chain copies: 2; label: 5'-Alexa647 on strand 1; blunt
recorded-endpoint: Kd

- binder: "B-DNA 21 bp (dsDNA) DNA 1: TATGCAATCGTAATAAACCGT DNA 2: ACGGTTTATTACGATTGCATA"
  recorded-endpoint: "Kd"
  data-value: "144 µM"

Measured values drawn from paper PMC7736808 for this set.
